tgt: PKC α (Homo sapiens)
experimental_protocol: Protein Kinase C Histone-Based Assay, α isoform
Type: biochemical
particulars: histone III substrate, 30 μM ATP, 10 min at 30° C.; read-out: PKC Activity (IC50 μM, Histone Based Assay) Alpha
measured_endpoint: IC50 (µM)

Reference set, count: 5
NCCCn1nc(C2=C(c3cn(-c4cccnc4)c4ccccc34)C(=O)NC2=O)c2ccccc21 | 0.032
CN(C)CCCn1nc(C2=C(c3cn(-c4ccccc4)c4ccccc34)C(=O)NC2=O)c2ccccc21 | 0.071
O=C1NC(=O)C(c2nn(CCCO)c3ccccc23)=C1c1cn(-c2cccnc2)c2ccccc12 | 0.306
CN(C)CCCn1nc(C2=C(c3cn(-c4csc5ccccc45)c4ccccc34)C(=O)NC2=O)c2ccccc21 | 0.611
C=Cn1cc(C2=C(c3nn(CCCN(C)C)c4ccccc34)C(=O)NC2=O)c2cc(Cl)ccc21 | 0.105

a = O=C1NC(=O)C(c2nn(CCCN3CCOCC3)c3ccccc23)=C1c1cn(-c2cnc3ccccc3c2)c2ccccc12
b = CN(C)CCCn1nc(C2=C(c3cn(-c4cccs4)c4ccccc34)C(=O)NC2=O)c2ccccc21
Would you kindly point out which of a and b has the smaller IC50 figure? The response must carry the label of the picked entry.
a
(a: 0.043 µM, b: 0.141 µM)

a = CN(C)CCCn1nc(C2=C(c3cn(-c4cncnc4)c4ccccc34)C(=O)NC2=O)c2ccccc21
b = CN(C)CCCn1nc(C2=C(c3cn(-c4ccc5ccccc5c4)c4ccccc34)C(=O)NC2=O)c2ccccc21
Would you kindly point out which of a and b has the smaller IC50 figure? The response must carry the label of the picked entry.
b

P = Cn1cc(C2=C(c3nn(CCCN4CCOCC4)c4ccccc34)C(=O)NC2=O)c2cc(Cl)ccc21
Q = CCn1cc(C2=C(c3nn(CCCN(C)C)c4ccccc34)C(=O)NC2=O)c2cc(Cl)ccc21
Which entry has a larger number for IC50, P or Q ? The response must carry the label of the picked entry.
P

I = Cn1cc(C2=C(c3nn(CCCN4CCCC4)c4ccccc34)C(=O)NC2=O)c2cc(Cl)ccc21
II = CN(CCO)CCCn1nc(C2=C(c3cn(-c4ccc5ccccc5c4)c4ccccc34)C(=O)NC2=O)c2ccccc21
III = CN(C)CCn1nc(C2=C(c3cn(-c4ccc5ccccc5c4)c4ccccc34)C(=O)NC2=O)c2ccccc21
List by increasing IC50. Form entry: labels listed in requested order.
III, I, II
(III: 0.08 µM, I: 0.204 µM, II: 0.422 µM)

###

tgt: PKC γ (Homo sapiens)
experimental_protocol: Protein Kinase C Histone-Based Assay, γ isoform
Format: biochemical
particulars: histone III substrate, 30 μM ATP, 10 min at 30° C.; read-out: PKC Activity (IC50 μM, Histone Based Assay) Gamma
measured_endpoint: IC50 (µM)

Reference set, count: 3
CN(C)CCCn1nc(C2=C(c3cn(-c4cccs4)c4ccccc34)C(=O)NC2=O)c2ccccc21 | 0.262
CN(C)CCCn1nc(C2=C(c3cn(-c4ccc5ccccc5c4)c4ccccc34)C(=O)NC2=O)c2ccccc21 | 0.115
CN(C)CCCn1nc(C2=C(c3cn(-c4ccccn4)c4ccccc34)C(=O)NC2=O)c2ccccc21 | 0.091

P = C=Cn1cc(C2=C(c3nn(CC(O)CN(C)C)c4ccccc34)C(=O)NC2=O)c2ccccc21 (centres unmarked)
Q = CN(C)CCCn1nc(C2=C(c3cn(-c4cccc5ccccc45)c4ccccc34)C(=O)NC2=O)c2ccccc21
R = O=C1NC(=O)C(c2nn(CCCN3CCCC3)c3ccccc23)=C1c1cn(-c2ccc3ccccc3c2)c2ccccc12
S = CCn1cc(C2=C(c3nn(CCCN(C)C)c4ccccc34)C(=O)NC2=O)c2cc(Cl)ccc21
T = C=Cn1cc(C2=C(c3nn(CCCN(C)C)c4ccccc34)C(=O)NC2=O)c2ccccc21
List by increasing IC50. Form entry: labels listed in requested order.
P, S, T, R, Q

1 = CN(C)CCn1nc(C2=C(c3cn(-c4ccc5ccccc5c4)c4ccccc34)C(=O)NC2=O)c2ccccc21
2 = CN(C)CCCn1nc(C2=C(c3cn(-c4csc5ccccc45)c4ccccc34)C(=O)NC2=O)c2ccccc21
Which entry has a larger number for IC50, 1 or 2 ? The response must carry the label of the picked entry.
2
(2: 0.713 µM, 1: 0.134 µM)

I = C=Cn1cc(C2=C(c3nn(CCCN(C)C)c4ccccc34)C(=O)NC2=O)c2cc(Cl)ccc21
II = CN(C)CCCn1nc(C2=C(c3cn(-c4cncnc4)c4ccccc34)C(=O)NC2=O)c2ccccc21
Which entry has a larger number for IC50, I or II ? The response must carry the label of the picked entry.
II
(II: 0.665 µM, I: 0.129 µM)
